assay.details: Percentage of remaining compound after 30 min incubation in human liver microsomes was determined as metabolic stability
Assay type: ADME, Microsome
experimental.conditions: read-out: Remaining compound
quantity.name: remaining at 0.5 h (%)
Give bare numbers, in %.

Each of the following entries comes with a recorded value; kindly state remaining at 0.5 h for each.
1. CC(C)CN(C[C@@H](O)[C@H](Cc1ccccc1)NC(=O)O[C@H]1CCOC1)S(=O)(=O)c1ccc(N)cc1
2. CC(C)(C)NC(=O)[C@@H]1CN(Cc2cccnc2)CCN1C[C@@H](O)C[C@@H](Cc1ccccc1)C(=O)N[C@H]1c2ccccc2C[C@H]1O
3. CC(C)CN(C[C@@H](O)[C@H](Cc1ccccc1)NC(=O)O[C@H]1CO[C@H]2OCC[C@H]21)S(=O)(=O)c1ccc2c(c1)OCO2

116
95
52

# batch size: 2; output remaining at 0.5 h per entry
1. CC(C)CN(C[C@@H](O)[C@H](Cc1ccccc1)NC(=O)O[C@H]1CO[C@H]2OCC[C@H]21)S(=O)(=O)c1ccc(N)cc1 (stereo in doubt; form 2)
2. COc1ccc(S(=O)(=O)N(CC(C)C)C[C@@H](O)[C@H](Cc2ccccc2)NC(=O)O[C@H]2CO[C@H]3OCC[C@H]32)cc1

1. 85
2. 56

Numbers sourced from ChEMBL document CHEMBL1142722.
